Target: Arginase (ARG1 enzyme) (Homo sapiens, UniProt P05089)
pIC50: −log10 of the molar value.
Rule: Condition met for pIC50 not less than 7, Condition not met for anything less.

[
  {
    "COMPOUND": "C[C@@]1(C(=O)O)NCC[C@@H]1CCCB(O)O [Example 16B]",
    "ASSIGNED_CLASS": "Condition not met"
  },
  {
    "COMPOUND": "NC1(C(=O)O)CNCC1(CO)CCCB(O)O (single isomer, unassigned) [Example 94B]",
    "ASSIGNED_CLASS": "Condition not met"
  },
  {
    "COMPOUND": "C[C@@]1(CCCB(O)O)[C@@H](CO)CN[C@@H]1C(=O)O [Example 80]",
    "ASSIGNED_CLASS": "Condition met"
  },
  {
    "COMPOUND": "O=C(O)[C@@H]1NCC[C@H]1CCCB(O)O [Example 15A]",
    "ASSIGNED_CLASS": "Condition not met"
  },
  {
    "COMPOUND": "O=C(O)C1C(CCCB(O)O)CCN1CCN1CCCCC1 (stereo not drawn) [Example 10]",
    "ASSIGNED_CLASS": "Condition not met"
  },
  {
    "COMPOUND": "O=C(O)C1NCCCC1CCCB(O)O (stereo not drawn) [Example 1]",
    "ASSIGNED_CLASS": "Condition not met"
  }
]

* * *

Measured pIC50 (Arginase (ARG1 enzyme) (Homo sapiens, UniProt P05089))
pIC50: −log10 of the molar value. Where a name gives a salt, the structure may show the parent alone.

[
  {
    "COMPOUND": "O=C(O)C1CNCC1CCCB(O)O (single isomer, unassigned) [Example 21C]",
    "EXPERIMENTAL_SYSTEM": "Arginase (ARG1 enzyme) (Homo sapiens, UniProt P05089)",
    "LIMIT_QUALIFIER": "<",
    "pIC50": 5.00
  },
  {
    "COMPOUND": "NC[C@]1(C(=O)O)NCC[C@H]1CCCB(O)O (single isomer, unassigned) [Example 57B]",
    "EXPERIMENTAL_SYSTEM": "Arginase (ARG1 enzyme) (Homo sapiens, UniProt P05089)",
    "LIMIT_QUALIFIER": "=",
    "pIC50": 5.24
  },
  {
    "COMPOUND": "O=C(O)[C@H]1NC[C@@H](O)[C@@H]1CCCB(O)O (single isomer, unassigned) [Example 20A]",
    "EXPERIMENTAL_SYSTEM": "Arginase (ARG1 enzyme) (Homo sapiens, UniProt P05089)",
    "LIMIT_QUALIFIER": "=",
    "pIC50": 6.32
  },
  {
    "COMPOUND": "O=C(O)[C@H]1NC[C@H](O)[C@@H]1CCCB(O)O",
    "EXPERIMENTAL_SYSTEM": "Arginase (ARG1 enzyme) (Homo sapiens, UniProt P05089)",
    "LIMIT_QUALIFIER": "<",
    "pIC50": 5.00
  },
  {
    "COMPOUND": "CC(C)[C@H](N)C(=O)N[C@H]1CN[C@H](C(=O)O)[C@@H]1CCCB(O)O",
    "EXPERIMENTAL_SYSTEM": "Arginase (ARG1 enzyme) (Homo sapiens, UniProt P05089)",
    "LIMIT_QUALIFIER": "=",
    "pIC50": 8.68
  },
  {
    "COMPOUND": "C[C@@]1(CCCB(O)O)[C@H](O)CN[C@@H]1C(=O)O",
    "EXPERIMENTAL_SYSTEM": "Arginase (ARG1 enzyme) (Homo sapiens, UniProt P05089)",
    "LIMIT_QUALIFIER": "<",
    "pIC50": 5.00
  },
  {
    "COMPOUND": "O=C(O)[C@H]1NCC[C@H]1SCCB(O)O [Example 93, hydrochloride]",
    "EXPERIMENTAL_SYSTEM": "Arginase (ARG1 enzyme) (Homo sapiens, UniProt P05089)",
    "LIMIT_QUALIFIER": "=",
    "pIC50": 7.04
  },
  {
    "COMPOUND": "O=C(O)[C@H]1NCCO[C@H]1CCCB(O)O",
    "EXPERIMENTAL_SYSTEM": "Arginase (ARG1 enzyme) (Homo sapiens, UniProt P05089)",
    "LIMIT_QUALIFIER": "=",
    "pIC50": 6.68
  },
  {
    "COMPOUND": "NCC1(C(=O)O)CCC(CCB(O)O)C1 (mixture of isomers)",
    "EXPERIMENTAL_SYSTEM": "Arginase (ARG1 enzyme) (Homo sapiens, UniProt P05089)",
    "LIMIT_QUALIFIER": "<",
    "pIC50": 5.00
  },
  {
    "COMPOUND": "O=C(O)[C@H]1NCC(CO)[C@H]1CCCB(O)O (stereo partly shown)",
    "EXPERIMENTAL_SYSTEM": "Arginase (ARG1 enzyme) (Homo sapiens, UniProt P05089)",
    "LIMIT_QUALIFIER": "=",
    "pIC50": 7.70
  },
  {
    "COMPOUND": "CO[C@H]1CN[C@H](C(=O)O)[C@@H]1CCCB(O)O",
    "EXPERIMENTAL_SYSTEM": "Arginase (ARG1 enzyme) (Homo sapiens, UniProt P05089)",
    "LIMIT_QUALIFIER": "=",
    "pIC50": 7.34
  },
  {
    "COMPOUND": "CC(C)[C@H](N)C(=O)N[C@H]1CN[C@H](C(=O)O)[C@]1(C)CCCB(O)O",
    "EXPERIMENTAL_SYSTEM": "Arginase (ARG1 enzyme) (Homo sapiens, UniProt P05089)",
    "LIMIT_QUALIFIER": "=",
    "pIC50": 7.08
  },
  {
    "COMPOUND": "O=C(O)[C@H]1NC[C@H]1CCCB(O)O",
    "EXPERIMENTAL_SYSTEM": "Arginase (ARG1 enzyme) (Homo sapiens, UniProt P05089)",
    "LIMIT_QUALIFIER": "=",
    "pIC50": 6.35
  },
  {
    "COMPOUND": "C[C@H](N)C(=O)N(C)[C@H]1CN[C@H](C(=O)O)[C@@H]1CCCB(O)O",
    "EXPERIMENTAL_SYSTEM": "Arginase (ARG1 enzyme) (Homo sapiens, UniProt P05089)",
    "LIMIT_QUALIFIER": "=",
    "pIC50": 6.01
  },
  {
    "COMPOUND": "O=C(O)[C@H]1NC[C@@H]1CCCB(O)O",
    "EXPERIMENTAL_SYSTEM": "Arginase (ARG1 enzyme) (Homo sapiens, UniProt P05089)",
    "LIMIT_QUALIFIER": "=",
    "pIC50": 6.47
  },
  {
    "COMPOUND": "NC[C@@]1(CCCB(O)O)CCN[C@@H]1C(=O)O",
    "EXPERIMENTAL_SYSTEM": "Arginase (ARG1 enzyme) (Homo sapiens, UniProt P05089)",
    "LIMIT_QUALIFIER": "=",
    "pIC50": 8.14
  },
  {
    "COMPOUND": "NC1CN[C@H](C(=O)O)C1CCCB(O)O (single isomer, unassigned) [Example 33A]",
    "EXPERIMENTAL_SYSTEM": "Arginase (ARG1 enzyme) (Homo sapiens, UniProt P05089)",
    "LIMIT_QUALIFIER": "<",
    "pIC50": 5.00
  },
  {
    "COMPOUND": "O=C(O)[C@H]1N[C@H](CO)C[C@H]1CCCB(O)O",
    "EXPERIMENTAL_SYSTEM": "Arginase (ARG1 enzyme) (Homo sapiens, UniProt P05089)",
    "LIMIT_QUALIFIER": "=",
    "pIC50": 8.11
  },
  {
    "COMPOUND": "NC[C@]1(C(=O)O)NCC[C@H]1CCCB(O)O (relative stereo) [Example 57A]",
    "EXPERIMENTAL_SYSTEM": "Arginase (ARG1 enzyme) (Homo sapiens, UniProt P05089)",
    "LIMIT_QUALIFIER": "=",
    "pIC50": 6.95
  }
]

* * *

Listed here are compounds together with their documented IC50.
Molecular target: Arginase (ARG1 enzyme) (Homo sapiens, UniProt P05089)
Sequence (P05089 1-322): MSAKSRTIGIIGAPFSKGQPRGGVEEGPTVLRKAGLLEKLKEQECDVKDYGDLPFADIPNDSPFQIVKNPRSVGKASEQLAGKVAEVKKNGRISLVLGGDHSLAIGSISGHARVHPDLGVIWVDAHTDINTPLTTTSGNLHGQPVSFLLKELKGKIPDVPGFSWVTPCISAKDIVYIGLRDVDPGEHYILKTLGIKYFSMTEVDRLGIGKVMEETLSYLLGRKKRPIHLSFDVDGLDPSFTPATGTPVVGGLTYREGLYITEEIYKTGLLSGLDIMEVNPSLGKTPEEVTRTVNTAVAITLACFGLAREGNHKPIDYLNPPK

[
  {
    "COMPOUND": "NCCN[C@H]1CN[C@H](C(=O)O)[C@@H]1CCCB(O)O",
    "DISPLAY_UNIT": "µM",
    "LIMIT_QUALIFIER": "=",
    "IC50": 0.00669
  },
  {
    "COMPOUND": "NC[C@@H]1C[C@@H](CCCB(O)O)[C@@H](C(=O)O)N1 [Example 60A]",
    "DISPLAY_UNIT": "µM",
    "LIMIT_QUALIFIER": "=",
    "IC50": 0.0295
  },
  {
    "COMPOUND": "CC(=O)N[C@H]1CN[C@H](C(=O)O)[C@@H]1CCCB(O)O",
    "DISPLAY_UNIT": "µM",
    "LIMIT_QUALIFIER": "=",
    "IC50": 0.247
  },
  {
    "COMPOUND": "N[C@]1(C(=O)O)CNC[C@]1(CO)CCCB(O)O [Example 94D]",
    "DISPLAY_UNIT": "µM",
    "LIMIT_QUALIFIER": ">",
    "IC50": 10
  },
  {
    "COMPOUND": "O=C(O)[C@@]1(CO)NCC[C@H]1CCCB(O)O [Example 59A]",
    "DISPLAY_UNIT": "µM",
    "LIMIT_QUALIFIER": "=",
    "IC50": 0.311
  },
  {
    "COMPOUND": "CN(C)C[C@H]1CN[C@H](C(=O)O)[C@]1(C)CCCB(O)O",
    "DISPLAY_UNIT": "µM",
    "LIMIT_QUALIFIER": ">",
    "IC50": 10
  },
  {
    "COMPOUND": "O=C(O)[C@H]1NCC[C@H]1CCCB(O)O (single isomer, unassigned)",
    "DISPLAY_UNIT": "µM",
    "LIMIT_QUALIFIER": "=",
    "IC50": 0.018
  },
  {
    "COMPOUND": "CCN(CC)[C@H]1CN[C@H](C(=O)O)[C@@H]1CCCB(O)O",
    "DISPLAY_UNIT": "µM",
    "LIMIT_QUALIFIER": "=",
    "IC50": 3.29
  },
  {
    "COMPOUND": "C[C@H]1N[C@H](C(=O)O)[C@](C)(CCCB(O)O)[C@H]1O [Example 74A]",
    "DISPLAY_UNIT": "µM",
    "LIMIT_QUALIFIER": "=",
    "IC50": 0.0486
  },
  {
    "COMPOUND": "O=C(O)[C@@]1(CCN2CCCC2)NCC[C@H]1CCCB(O)O",
    "DISPLAY_UNIT": "µM",
    "LIMIT_QUALIFIER": "=",
    "IC50": 0.0159
  },
  {
    "COMPOUND": "NC1(C(=O)O)CNCC1(CO)CCCB(O)O (single isomer, unassigned) [Example 94A]",
    "DISPLAY_UNIT": "µM",
    "LIMIT_QUALIFIER": "=",
    "IC50": 3.08
  },
  {
    "COMPOUND": "CN(C)C[C@@]1(CCCB(O)O)CCN[C@@H]1C(=O)O",
    "DISPLAY_UNIT": "µM",
    "LIMIT_QUALIFIER": "=",
    "IC50": 0.119
  },
  {
    "COMPOUND": "O=C(O)[C@@H]1CC(CCB(O)O)CN1 (stereo partly shown) [Example 18, 4-[2-(dihydroxyboranyl)ethyl]proline]",
    "DISPLAY_UNIT": "µM",
    "LIMIT_QUALIFIER": "=",
    "IC50": 8.73
  },
  {
    "COMPOUND": "C[C@]1(CCCB(O)O)[C@@H](C(=O)O)NC[C@@H]1C(F)F",
    "DISPLAY_UNIT": "µM",
    "LIMIT_QUALIFIER": "=",
    "IC50": 0.139
  },
  {
    "COMPOUND": "O=C(O)C1CNCC1CCCB(O)O (single isomer, unassigned) [Example 21A]",
    "DISPLAY_UNIT": "µM",
    "LIMIT_QUALIFIER": ">",
    "IC50": 10
  },
  {
    "COMPOUND": "C[C@H](N)C(=O)N[C@H]1CN[C@H](C(=O)O)[C@@H]1CCCB(O)O",
    "DISPLAY_UNIT": "µM",
    "LIMIT_QUALIFIER": "=",
    "IC50": 0.0136
  },
  {
    "COMPOUND": "O=C(O)C1NCC[C@@H]1CCCB(O)O (single isomer, unassigned)",
    "DISPLAY_UNIT": "µM",
    "LIMIT_QUALIFIER": "=",
    "IC50": 8.04
  },
  {
    "COMPOUND": "N[C@H](C(=O)N[C@H]1CN[C@H](C(=O)O)[C@@H]1CCCB(O)O)C1CCCC1",
    "DISPLAY_UNIT": "µM",
    "LIMIT_QUALIFIER": "=",
    "IC50": 0.000778
  },
  {
    "COMPOUND": "O=C(O)[C@H]1NCC[C@@]1(CO)CCCB(O)O",
    "DISPLAY_UNIT": "µM",
    "LIMIT_QUALIFIER": "=",
    "IC50": 0.0193
  }
]
